assay: Determination of moisture contents with KF moisture meter at different time points; type: physicochemical; conditions: temperature 23° C., humidity 92.5%, 7 h
Please go through the items and note down their moisture content (%).
Kindly report the value followed by its unit.

See these solved cases before continuing.
compound="CC(O)CC(=O)O.CC(O)CC(=O)[O-].CC(O)CC(=O)[O-].[Ca+2] (stereo not drawn)" parameter_measured="moisture content (%)" endpoint_value=5.45%
compound=CC[C@H](O)CC(=O)O.CC[C@H](O)CC(=O)[O-].[Na+] parameter_measured="moisture content (%)" endpoint_value=4.43%
compound="CC(O)CC(=O)O.CC(O)CC(=O)[O-].CC(O)CC(=O)[O-].[Mg+2] (stereo not drawn)" parameter_measured="moisture content (%)" endpoint_value=5.57%
compound="C[C@@H](O)CC(=O)O [R-3-hydroxybutyric acid]" parameter_measured="moisture content (%)" endpoint_value=10.56%
compound="C[C@H](O)CC(=O)[O-].[K+] [Potassium S-3-hydroxybutyrate, potassium S-3-hydroxybutyrate]" parameter_measured="moisture content (%)" endpoint_value=8.34%

Quick batch: moisture content (%) for everything below.
1. C[C@@H](O)CC(=O)O.C[C@@H](O)CC(=O)[O-].[K+]
2. C[C@H](O)CC(=O)[O-].C[C@H](O)CC(=O)[O-].[Mg+2] [Magnesium S-3-hydroxybutyrate, magnesium S-3-hydroxybutyrate]
3. C[C@@H](O)CC(=O)O.C[C@@H](O)CC(=O)[O-].C[C@@H](O)CC(=O)[O-].[Ca+2]
4. CC(O)CC(=O)[O-].[K+] (stereo not drawn) [Potassium 3-hydroxybutyrate, potassium 3-hydroxybutyrate]

1: 6.78%; 2: 8.24%; 3: 5.39%; 4: 8.34%

====

assay: Determination of moisture contents with KF moisture meter at different time points; assay type: physicochemical; conditions: temperature 23° C., humidity 92.5%, 22 h
Consider the following molecules; for each one, report its moisture content (%).
Give bare numbers, in %.

Recorded moisture content (%), per entry:
molecule=C[C@@H](O)CC(=O)O.C[C@@H](O)CC(=O)[O-].C[C@@H](O)CC(=O)[O-].[Mg+2] output_unit=% endpoint_value=14.45
molecule="CC[C@@H](O)CC(=O)O [R-3-hydroxypentanoic acid]" output_unit=% endpoint_value=27.78
molecule="C[C@H](O)CC(=O)O [S-3-hydroxybutyric acid]" output_unit=% endpoint_value=32.95
molecule="CC[C@H](O)CC(=O)O [S-3-hydroxypentanoic acid]" output_unit=% endpoint_value=27.46
molecule="C[C@H](O)CC(=O)[O-].C[C@H](O)CC(=O)[O-].[Mg+2] [Magnesium S-3-hydroxybutyrate, magnesium S-3-hydroxybutyrate]" output_unit=% endpoint_value=18.54

Batch: moisture content (%) for all items listed.
1. CC(O)CC(=O)O.CC(O)CC(=O)[O-].CC(O)CC(=O)[O-].[Mg+2] (stereo not drawn)
2. C[C@H](O)CC(=O)[O-].C[C@H](O)CC(=O)[O-].[Ca+2] [Calcium S-3-hydroxybutyrate, calcium S-3-hydroxybutyrate]
3. CC(O)CC(=O)O (stereo not drawn) [3-hydroxybutyric acid]
4. CC(O)CC(=O)O.CC(O)CC(=O)[O-].CC(O)CC(=O)[O-].[Ca+2] (stereo not drawn)
5. C[C@@H](O)CC(=O)[O-].[K+] [Potassium R-3-hydroxybutyrate, potassium R-3-hydroxybutyrate]
6. CC(O)CC(=O)O.CC(O)CC(=O)[O-].[K+] (stereo not drawn)

1: 14.68; 2: 17.55; 3: 33.51; 4: 14.43; 5: 32.68; 6: 19.25

I need moisture content (%) for every entry listed below, if you could help.
1. CCC(O)CC(=O)O (stereo not drawn) [3-hydroxypentanoic acid]
2. CC[C@@H](O)CC(=O)O.CC[C@@H](O)CC(=O)[O-].[Na+]
3. CCC(O)CC(=O)O.CCC(O)CC(=O)[O-].[Na+] (stereo not drawn)
4. C[C@H](O)CC(=O)[O-].[K+] [Potassium S-3-hydroxybutyrate, potassium S-3-hydroxybutyrate]
5. C[C@H](O)CC(=O)O.C[C@H](O)CC(=O)[O-].[K+]
6. CC[C@@H](O)CC(=O)[O-].[Na+] [Sodium R-3-hydroxypentanoate, sodium R-3-hydroxypentanoate]
7. C[C@H](O)CC(=O)O.C[C@H](O)CC(=O)[O-].C[C@H](O)CC(=O)[O-].[Ca+2]

27.93
14.54
14.69
32.75
18.28
20.57
13.98

====

experiment: Determination of moisture contents with KF moisture meter at different time points; assay type: physicochemical; conditions: temperature 23° C., humidity 92.5%, 4 h
parameter-measured: moisture content (%)
Answers are plain numbers, in %.

Consider the following illustrative entries.
molecule="CC(O)CC(=O)O.CC(O)CC(=O)[O-].CC(O)CC(=O)[O-].[Ca+2] (stereo not drawn)" parameter_measured="moisture content (%)" output_unit=% endpoint_value=3.19
molecule=C[C@H](O)CC(=O)O.C[C@H](O)CC(=O)[O-].[K+] parameter_measured="moisture content (%)" output_unit=% endpoint_value=3.72
molecule="CC(O)CC(=O)[O-].[K+] (stereo not drawn) [Potassium 3-hydroxybutyrate, potassium 3-hydroxybutyrate]" parameter_measured="moisture content (%)" output_unit=% endpoint_value=4.98
molecule="CC[C@H](O)CC(=O)[O-].[Na+] [Sodium S-3-hydroxypentanoate, sodium S-3-hydroxypentanoate]" parameter_measured="moisture content (%)" output_unit=% endpoint_value=4.43
molecule="C[C@H](O)CC(=O)[O-].[K+] [Potassium S-3-hydroxybutyrate, potassium S-3-hydroxybutyrate]" parameter_measured="moisture content (%)" output_unit=% endpoint_value=4.97
molecule="CC(O)CC(=O)O.CC(O)CC(=O)[O-].[K+] (stereo not drawn)" parameter_measured="moisture content (%)" output_unit=% endpoint_value=3.68
molecule="CC[C@@H](O)CC(=O)O [R-3-hydroxypentanoic acid]" parameter_measured="moisture content (%)" output_unit=% endpoint_value=5.38
molecule="CC[C@@H](O)CC(=O)[O-].[Na+] [Sodium R-3-hydroxypentanoate, sodium R-3-hydroxypentanoate]" parameter_measured="moisture content (%)" output_unit=% endpoint_value=4.36

List the reported moisture content (%) of each molecule below.
1. C[C@@H](O)CC(=O)O.C[C@@H](O)CC(=O)[O-].C[C@@H](O)CC(=O)[O-].[Ca+2]
2. C[C@@H](O)CC(=O)O.C[C@@H](O)CC(=O)[O-].[K+]
3. C[C@H](O)CC(=O)O.C[C@H](O)CC(=O)[O-].C[C@H](O)CC(=O)[O-].[Mg+2]
4. C[C@@H](O)CC(=O)O [R-3-hydroxybutyric acid]
5. CC(O)CC(=O)O (stereo not drawn) [3-hydroxybutyric acid]
6. CC[C@@H](O)CC(=O)O.CC[C@@H](O)CC(=O)[O-].[Na+]
7. C[C@H](O)CC(=O)[O-].C[C@H](O)CC(=O)[O-].[Mg+2] [Magnesium S-3-hydroxybutyrate, magnesium S-3-hydroxybutyrate]

3.26
3.66
3.16
6.46
6.59
2.72
4.22

====

Kindly supply the reported moisture content (%) values for the records listed here.
test: Determination of moisture contents with KF moisture meter at different time points; assay type: physicochemical; settings: temperature 23° C., humidity 92.5%, 22 h
One number for each entry, in %.

compound="CC[C@H](O)CC(=O)[O-].[Na+] [Sodium S-3-hydroxypentanoate, sodium S-3-hydroxypentanoate]" parameter_measured="moisture content (%)" output_unit=% endpoint_value=20.44
compound="CCC(O)CC(=O)[O-].[Na+] (stereo not drawn) [Sodium 3-hydroxypentanoate, sodium 3-hydroxypentanoate]" parameter_measured="moisture content (%)" output_unit=% endpoint_value=20.79

Now for the compound whose moisture content (%) we want.
moisture content (%) for CC(O)CC(=O)[O-].[K+] (stereo not drawn) [Potassium 3-hydroxybutyrate, potassium 3-hydroxybutyrate] ?
32.86

====

assay: Determination of moisture contents with KF moisture meter at different time points; assay type: physicochemical; conditions: temperature 23° C., humidity 92.5%, 4 h
parameter-measured: moisture content (%)
Answers are plain numbers, in %.

Field: example entries. Status: answers known.
compound="C[C@@H](O)CC(=O)[O-].[K+] [Potassium R-3-hydroxybutyrate, potassium R-3-hydroxybutyrate]" parameter_measured="moisture content (%)" output_unit=% endpoint_value=4.93
compound="CC(O)CC(=O)O.CC(O)CC(=O)[O-].CC(O)CC(=O)[O-].[Mg+2] (stereo not drawn)" parameter_measured="moisture content (%)" output_unit=% endpoint_value=3.26

For C[C@@H](O)CC(=O)O.C[C@@H](O)CC(=O)[O-].C[C@@H](O)CC(=O)[O-].[Mg+2] , what is its reported moisture content (%)?
3.16

====

assay: Determination of moisture contents with KF moisture meter at different time points; assay type: physicochemical; details: temperature 23° C., humidity 92.5%, 30 min
Exercise: for every item that follows, state its recorded moisture content (%).
Give bare numbers, in %.

// worked examples, moisture content (%) included
compound="CC(O)CC(=O)[O-].[K+] (stereo not shown) [Potassium 3-hydroxybutyrate, potassium 3-hydroxybutyrate]" endpoint_value=1.14
compound="CCC(O)CC(=O)[O-].[Na+] (stereo not shown) [Sodium 3-hydroxypentanoate, sodium 3-hydroxypentanoate]" endpoint_value=0.96
compound=C[C@@H](O)CC(=O)O.C[C@@H](O)CC(=O)[O-].C[C@@H](O)CC(=O)[O-].[Ca+2] endpoint_value=0.54

# ---- query compound ----
Query (compound): C[C@H](O)CC(=O)O.C[C@H](O)CC(=O)[O-].C[C@H](O)CC(=O)[O-].[Mg+2] ; field requested: moisture content (%)
0.58
